# system: human CK2 holoenzyme (Homo sapiens)
# Construct: made in house; host or cells: Escherichia coli
# protocol_notes: biochemical
# conditions: recombinant human CK2; pIC50 = -logIC50; newly synthesized indeno[1,2-b]indoles; read-out: Tested pIC50 (converted)
measure: IC50 (nM)
Reply numerically in nM, unit not repeated.

The cases that follow already have their IC50 on record.
smiles_notation=O=c1ccc(=O)c2c1[nH]c1c3ccccc3c(=O)c12 system="human CK2 holoenzyme (Homo sapiens)" measure=IC50 result=1780
smiles_notation=O=C1c2ccccc2-c2[nH]c3cccc(O)c3c21 system="human CK2 holoenzyme (Homo sapiens)" measure=IC50 result=2220
smiles_notation=COc1cccc2c(=O)c3c4c(=O)ccc(=O)c4n(C(C)C)c3c12 system="human CK2 holoenzyme (Homo sapiens)" measure=IC50 result=871

# molecule CC(C)n1c2c(=O)ccc(=O)c2c2c(=O)c3c(Br)cccc3c21 ; its IC50 = 1350

* * *

# system: human CK2 holoenzyme (Homo sapiens, UniProt P68400)
# Construct: made in house; host or cells: Escherichia coli
# Sequence (P68400 whole entry): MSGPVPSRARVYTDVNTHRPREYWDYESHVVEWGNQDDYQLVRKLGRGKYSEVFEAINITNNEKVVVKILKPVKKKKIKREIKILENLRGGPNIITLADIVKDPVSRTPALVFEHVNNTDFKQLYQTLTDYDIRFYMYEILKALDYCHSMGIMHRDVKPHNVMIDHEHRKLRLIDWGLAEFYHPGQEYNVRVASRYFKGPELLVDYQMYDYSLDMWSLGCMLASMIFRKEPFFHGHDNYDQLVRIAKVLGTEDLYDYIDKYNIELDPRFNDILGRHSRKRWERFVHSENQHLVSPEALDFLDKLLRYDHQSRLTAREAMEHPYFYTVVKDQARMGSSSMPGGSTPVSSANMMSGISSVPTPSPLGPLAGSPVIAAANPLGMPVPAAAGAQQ
# Sequence (P67870 whole entry partner): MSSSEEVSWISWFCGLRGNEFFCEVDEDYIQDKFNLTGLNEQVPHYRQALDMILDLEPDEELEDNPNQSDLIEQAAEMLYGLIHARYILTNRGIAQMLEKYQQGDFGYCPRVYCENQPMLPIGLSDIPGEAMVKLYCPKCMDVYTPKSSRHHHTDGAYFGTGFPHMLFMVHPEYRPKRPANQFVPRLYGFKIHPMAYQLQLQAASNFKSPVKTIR
# protocol_notes: biochemical
# conditions: recombinant human CK2; newly synthesized indeno[1,2-b]indoles; read-out: Tested IC50
Measured IC50, listed per entry for reference.
Hi, when you answer, please include the unit after the number. Thanks!

The cases that follow already have their IC50 on record.
smiles_notation=O=C1c2ccccc2-c2[nH]c3cccc(O)c3c21 result="2220 nM"
smiles_notation=CCn1c2c(=O)ccc(=O)c2c2c(=O)c3ccccc3c21 result="1580 nM"
smiles_notation=CC(C)n1c2c(=O)ccc(=O)c2c2c(=O)c3c(Br)cccc3c21 result="1350 nM"
smiles_notation=COc1cccc2c(=O)c3c4c(=O)ccc(=O)c4n(C(C)C)c3c12 result="870 nM"

# compound O=c1ccc(=O)c2c1[nH]c1c3ccccc3c(=O)c12 ; its IC50 = 1780 nM

* * *

# system: human CK2 holoenzyme (Homo sapiens)
# Construct: made in house; host or cells: Escherichia coli
# protocol_notes: biochemical
# conditions: Tested IC50, recombinant human CK2; newly synthesized indeno[1,2-b]indoles
measure: IC50 (µM)
Reply numerically in µM, unit not repeated.

The cases that follow already have their IC50 on record.
smiles_notation=Cn1c2c(=O)ccc(=O)c2c2c(=O)c3ccccc3c21 measure=IC50 unit_of_measurement=µM result=1.12
smiles_notation=CC(=O)Oc1ccc2c(c1)-c1c(c3c(n1C(C)C)CCCC3=O)C2=O measure=IC50 unit_of_measurement=µM result=3.21
smiles_notation=COc1ccc2c(=O)c3c4c(=O)ccc(=O)c4n(C(C)C)c3c2c1 measure=IC50 unit_of_measurement=µM result=4.16

Please examine the following record next.
# molecule COC(=O)COc1ccc2c(c1)-c1c(c3c(n1C(C)C)CCCC3=O)C2=O ; its IC50 = 1.52

* * *

Measured pIC50, listed per entry for reference.
# system: human CK2 holoenzyme (Homo sapiens, UniProt P68400)
# Construct: made in house; host or cells: Escherichia coli
# protocol_notes: biochemical
# conditions: Tested pIC50, recombinant human CK2; pIC50 = -logIC50; newly synthesized indeno[1,2-b]indoles
Entry type: numeric. Quantity: pIC50, the -log10 of concentration in molar units.

compound="COC(=O)CCCOc1ccc2c(c1)-c1c(c3c(n1C(C)C)CCCC3=O)C2=O [4r]" measure=pIC50 result=6.28
compound="CC(C)n1c2c(c3c1-c1cc(Br)cc(Br)c1C3=O)C(=O)CCC2 [4w]" measure=pIC50 result=6.96
compound="Cn1c2c(=O)ccc(=O)c2c2c(=O)c3ccccc3c21 [6b]" measure=pIC50 result=5.95
compound="CC(C)n1c2c(c3c1-c1cccc(Br)c1C3=O)C(=O)CCC2 [4j]" measure=pIC50 result=6.85
compound="COc1ccc2c(=O)c3c4c(=O)ccc(=O)c4n(C(C)C)c3c2c1 [6e]" measure=pIC50 result=5.38

# compound CC(C)n1c2c(c3c1-c1cccc(C(F)(F)F)c1C3=O)C(=O)CCC2 [4i] ; its pIC50 = 6.68

# compound COC(=O)COc1ccc2c(c1)-c1c(c3c(n1C(C)C)CCCC3=O)C2=O [4p] ; its pIC50 = 5.82

# compound CC(=O)Oc1ccc2c(c1)-c1c(c3c(n1C(C)C)CCCC3=O)C2=O [4q] ; its pIC50 = 5.49

# compound Cc1cccc2c1C(=O)c1c3c(n(C(C)C)c1-2)CCCC3=O [4h] ; its pIC50 = 6.96

# compound CC(C)n1c2c(c3c1-c1cc(OCCCC(=O)O)ccc1C3=O)C(=O)CCC2 [4s] ; its pIC50 = 5.82
